details: in n-propanol, 298.15 K
recordedEndpoint: solubility (mole fraction)
Lab note: record just the number, no unit beside it.

Ask: # return recorded solubility (mole fraction) for input `CC(C)C(=O)Nc1ccc([N+](=O)[O-])c(C(F)(F)F)c1`
Result: 0.0784

----------
conditions: in methanol, 303.15 K
recordedEndpoint: solubility (mole fraction)
Lab note: record just the number, no unit beside it.

Ask: # return recorded solubility (mole fraction) for input `CC(C)C(=O)Nc1ccc([N+](=O)[O-])c(C(F)(F)F)c1`
Result: 0.0878

----------
conditions: in acetonitrile, 308.15 K
recordedEndpoint: solubility (mole fraction)

Ask: # return recorded solubility (mole fraction) for input `CC(C)C(=O)Nc1ccc([N+](=O)[O-])c(C(F)(F)F)c1`
Result: 0.246

----------
conditions: in methyl acetate, 288.15 K
recordedEndpoint: solubility (mole fraction)
Lab note: record just the number, no unit beside it.

Ask: # return recorded solubility (mole fraction) for input `CC(C)C(=O)Nc1ccc([N+](=O)[O-])c(C(F)(F)F)c1`
Result: 0.179

----------
conditions: in acetonitrile, 318.15 K
recordedEndpoint: solubility (mole fraction)
Lab note: record just the number, no unit beside it.

Ask: # return recorded solubility (mole fraction) for input `CC(C)C(=O)Nc1ccc([N+](=O)[O-])c(C(F)(F)F)c1`
Result: 0.355

----------
conditions: in ethanol, 298.15 K
recordedEndpoint: solubility (mole fraction)
Lab note: record just the number, no unit beside it.

Ask: # return recorded solubility (mole fraction) for input `CC(C)C(=O)Nc1ccc([N+](=O)[O-])c(C(F)(F)F)c1`
Result: 0.0797

----------
conditions: in isopropanol, 283.15 K
recordedEndpoint: solubility (mole fraction)
Lab note: record just the number, no unit beside it.

Ask: # return recorded solubility (mole fraction) for input `CC(C)C(=O)Nc1ccc([N+](=O)[O-])c(C(F)(F)F)c1`
Result: 0.0609

----------
settings: in isobutanol, 308.15 K
recordedEndpoint: solubility (mole fraction)
Lab note: record just the number, no unit beside it.

Ask: # return recorded solubility (mole fraction) for input `CC(C)C(=O)Nc1ccc([N+](=O)[O-])c(C(F)(F)F)c1`
Result: 0.118

----------
conditions: in isobutanol, 283.15 K
recordedEndpoint: solubility (mole fraction)

Ask: # return recorded solubility (mole fraction) for input `CC(C)C(=O)Nc1ccc([N+](=O)[O-])c(C(F)(F)F)c1`
Result: 0.0381

----------
conditions: in n-propanol, 303.15 K
recordedEndpoint: solubility (mole fraction)
Lab note: record just the number, no unit beside it.

Ask: # return recorded solubility (mole fraction) for input `CC(C)C(=O)Nc1ccc([N+](=O)[O-])c(C(F)(F)F)c1`
Result: 0.0889

----------
conditions: in isopropanol, 298.15 K
recordedEndpoint: solubility (mole fraction)
Lab note: record just the number, no unit beside it.

Ask: # return recorded solubility (mole fraction) for input `CC(C)C(=O)Nc1ccc([N+](=O)[O-])c(C(F)(F)F)c1`
Result: 0.0918

----------
details: in isobutanol, 318.15 K
recordedEndpoint: solubility (mole fraction)
Lab note: record just the number, no unit beside it.

Ask: # return recorded solubility (mole fraction) for input `CC(C)C(=O)Nc1ccc([N+](=O)[O-])c(C(F)(F)F)c1`
Result: 0.171

----------
conditions: in isobutanol, 323.15 K
recordedEndpoint: solubility (mole fraction)
Lab note: record just the number, no unit beside it.

Ask: # return recorded solubility (mole fraction) for input `CC(C)C(=O)Nc1ccc([N+](=O)[O-])c(C(F)(F)F)c1`
Result: 0.207

----------
settings: in ethyl acetate, 313.15 K
recordedEndpoint: solubility (mole fraction)
Lab note: record just the number, no unit beside it.

Ask: # return recorded solubility (mole fraction) for input `CC(C)C(=O)Nc1ccc([N+](=O)[O-])c(C(F)(F)F)c1`
Result: 0.29

----------
conditions: in THF, 303.15 K
recordedEndpoint: solubility (mole fraction)
Lab note: record just the number, no unit beside it.

Ask: # return recorded solubility (mole fraction) for input `CC(C)C(=O)Nc1ccc([N+](=O)[O-])c(C(F)(F)F)c1`
Result: 0.376

----------
conditions: in isobutanol, 278.15 K
recordedEndpoint: solubility (mole fraction)
Lab note: record just the number, no unit beside it.

Ask: # return recorded solubility (mole fraction) for input `CC(C)C(=O)Nc1ccc([N+](=O)[O-])c(C(F)(F)F)c1`
Result: 0.0307

----------
details: in methanol, 283.15 K
recordedEndpoint: solubility (mole fraction)
Lab note: record just the number, no unit beside it.

Ask: # return recorded solubility (mole fraction) for input `CC(C)C(=O)Nc1ccc([N+](=O)[O-])c(C(F)(F)F)c1`
Result: 0.047

----------
conditions: in methyl acetate, 278.15 K
recordedEndpoint: solubility (mole fraction)
Lab note: record just the number, no unit beside it.

Ask: # return recorded solubility (mole fraction) for input `CC(C)C(=O)Nc1ccc([N+](=O)[O-])c(C(F)(F)F)c1`
Result: 0.141

----------
settings: in acetonitrile, 288.15 K
recordedEndpoint: solubility (mole fraction)
Lab note: record just the number, no unit beside it.

Ask: # return recorded solubility (mole fraction) for input `CC(C)C(=O)Nc1ccc([N+](=O)[O-])c(C(F)(F)F)c1`
Result: 0.0902

----------
conditions: in methyl acetate, 293.15 K
recordedEndpoint: solubility (mole fraction)
Lab note: record just the number, no unit beside it.

Ask: # return recorded solubility (mole fraction) for input `CC(C)C(=O)Nc1ccc([N+](=O)[O-])c(C(F)(F)F)c1`
Result: 0.208

----------
details: in acetonitrile, 313.15 K
recordedEndpoint: solubility (mole fraction)
Lab note: record just the number, no unit beside it.

Ask: # return recorded solubility (mole fraction) for input `CC(C)C(=O)Nc1ccc([N+](=O)[O-])c(C(F)(F)F)c1`
Result: 0.296

----------
settings: in methanol, 278.15 K
recordedEndpoint: solubility (mole fraction)
Lab note: record just the number, no unit beside it.

Ask: # return recorded solubility (mole fraction) for input `CC(C)C(=O)Nc1ccc([N+](=O)[O-])c(C(F)(F)F)c1`
Result: 0.0401

----------
conditions: in methanol, 293.15 K
recordedEndpoint: solubility (mole fraction)
Lab note: record just the number, no unit beside it.

Ask: # return recorded solubility (mole fraction) for input `CC(C)C(=O)Nc1ccc([N+](=O)[O-])c(C(F)(F)F)c1`
Result: 0.0641

----------
details: in n-propanol, 313.15 K
recordedEndpoint: solubility (mole fraction)
Lab note: record just the number, no unit beside it.

Ask: # return recorded solubility (mole fraction) for input `CC(C)C(=O)Nc1ccc([N+](=O)[O-])c(C(F)(F)F)c1`
Result: 0.115

----------
conditions: in methyl acetate, 298.15 K
recordedEndpoint: solubility (mole fraction)
Lab note: record just the number, no unit beside it.

Ask: # return recorded solubility (mole fraction) for input `CC(C)C(=O)Nc1ccc([N+](=O)[O-])c(C(F)(F)F)c1`
Result: 0.24

----------
conditions: in isobutanol, 303.15 K
recordedEndpoint: solubility (mole fraction)
Lab note: record just the number, no unit beside it.

Ask: # return recorded solubility (mole fraction) for input `CC(C)C(=O)Nc1ccc([N+](=O)[O-])c(C(F)(F)F)c1`
Result: 0.0965

----------
details: in isobutanol, 288.15 K
recordedEndpoint: solubility (mole fraction)
Lab note: record just the number, no unit beside it.

Ask: # return recorded solubility (mole fraction) for input `CC(C)C(=O)Nc1ccc([N+](=O)[O-])c(C(F)(F)F)c1`
Result: 0.0487

----------
settings: in THF, 308.15 K
recordedEndpoint: solubility (mole fraction)
Lab note: record just the number, no unit beside it.

Ask: # return recorded solubility (mole fraction) for input `CC(C)C(=O)Nc1ccc([N+](=O)[O-])c(C(F)(F)F)c1`
Result: 0.405

----------
conditions: in methanol, 298.15 K
recordedEndpoint: solubility (mole fraction)

Ask: # return recorded solubility (mole fraction) for input `CC(C)C(=O)Nc1ccc([N+](=O)[O-])c(C(F)(F)F)c1`
Result: 0.0757

----------
conditions: in methyl acetate, 303.15 K
recordedEndpoint: solubility (mole fraction)
Lab note: record just the number, no unit beside it.

Ask: # return recorded solubility (mole fraction) for input `CC(C)C(=O)Nc1ccc([N+](=O)[O-])c(C(F)(F)F)c1`
Result: 0.275

----------
conditions: in n-butanol, 303.15 K
recordedEndpoint: solubility (mole fraction)
Lab note: record just the number, no unit beside it.

Ask: # return recorded solubility (mole fraction) for input `CC(C)C(=O)Nc1ccc([N+](=O)[O-])c(C(F)(F)F)c1`
Result: 0.0904

----------
details: in isopropanol, 313.15 K
recordedEndpoint: solubility (mole fraction)
Lab note: record just the number, no unit beside it.

Ask: # return recorded solubility (mole fraction) for input `CC(C)C(=O)Nc1ccc([N+](=O)[O-])c(C(F)(F)F)c1`
Result: 0.139

----------
settings: in acetonitrile, 278.15 K
recordedEndpoint: solubility (mole fraction)
Lab note: record just the number, no unit beside it.

Ask: # return recorded solubility (mole fraction) for input `CC(C)C(=O)Nc1ccc([N+](=O)[O-])c(C(F)(F)F)c1`
Result: 0.0566
